# measurement_target: C-Rel subunit;p52 subunit (Homo sapiens;Homo sapiens, UniProt Q04864;Q00653 1-285;4-332)
# Sequence 1: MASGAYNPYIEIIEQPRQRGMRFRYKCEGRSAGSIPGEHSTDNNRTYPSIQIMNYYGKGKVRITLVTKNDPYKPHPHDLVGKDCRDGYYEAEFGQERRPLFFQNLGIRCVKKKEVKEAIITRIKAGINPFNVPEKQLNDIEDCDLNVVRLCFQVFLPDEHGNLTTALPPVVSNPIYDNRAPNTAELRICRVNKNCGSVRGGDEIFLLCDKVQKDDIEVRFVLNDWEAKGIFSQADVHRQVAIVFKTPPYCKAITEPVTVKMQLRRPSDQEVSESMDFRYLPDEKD
# Sequence 2: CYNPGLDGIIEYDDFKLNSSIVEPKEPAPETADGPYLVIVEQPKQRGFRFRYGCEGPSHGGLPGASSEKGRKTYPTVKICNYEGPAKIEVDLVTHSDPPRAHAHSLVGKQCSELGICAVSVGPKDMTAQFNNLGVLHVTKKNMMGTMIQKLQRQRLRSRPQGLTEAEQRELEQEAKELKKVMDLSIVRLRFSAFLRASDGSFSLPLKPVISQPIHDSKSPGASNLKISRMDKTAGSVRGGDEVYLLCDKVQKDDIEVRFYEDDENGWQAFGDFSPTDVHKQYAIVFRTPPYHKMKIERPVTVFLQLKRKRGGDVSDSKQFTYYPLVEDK
# measurement_description: protein binding microarray; high values mean tight binding
# test_context: dsDNA, one strand shown
measured_metric: binding signal

- sequence_record: "GAAGGAGTCCT"
  test_result: "-0.746 z-score"
- sequence_record: "AAAAAGCTCCT"
  test_result: "-1.07 z-score"
- sequence_record: "GAGTAAGCCCC"
  test_result: "0.236 z-score"
- sequence_record: "CGAGTTTCCCT"
  test_result: "0.975 z-score"
- sequence_record: "AGGAAAGTCCC"
  test_result: "2.89 z-score"
- sequence_record: "CGGTGGATCCC"
  test_result: "1.43 z-score"
- sequence_record: "AAAAGCCTCCT"
  test_result: "-1.03 z-score"
- sequence_record: "CAGAGTGTCCC"
  test_result: "0.221 z-score"
- sequence_record: "AAAGTCTCCCC"
  test_result: "0.388 z-score"
- sequence_record: "GGATAGTCCCT"
  test_result: "1.82 z-score"
- sequence_record: "CGAGGGTTCCC"
  test_result: "-0.0728 z-score"
- sequence_record: "GAGATTACCCT"
  test_result: "0.377 z-score"
- sequence_record: "GGGTACCTCCC"
  test_result: "0.556 z-score"
- sequence_record: "AGGGTGCCCCT"
  test_result: "0.644 z-score"
- sequence_record: "CGGTTGCTCCT"
  test_result: "-1 z-score"
- sequence_record: "GGAATGGTCCT"
  test_result: "-0.524 z-score"
- sequence_record: "AGGTGCGTCCT"
  test_result: "-0.46 z-score"
- sequence_record: "CGAAGCATCCT"
  test_result: "-1 z-score"
- sequence_record: "AAATTTGCCCT"
  test_result: "0.00992 z-score"
- sequence_record: "CGAGAATCCCT"
  test_result: "0.32 z-score"
